# assay-remarks: in vivo
# Parameters: species or system male Sprague Dawley rats
# settings: male, Sprague Dawley, rat, iv, 10 mg/kg
recorded-metric: Vd (L/kg)
Respond numerically; units are L/kg and should not be typed.

In: Annotate the compound Clc1ccc2c(NCC34CCCN3CCC4)ccnc2c1 [MG3] with its measured Vd.
Out: 59.9

###

# assay-remarks: Oral DRF and systemic exposure in NHP
# Format: in vivo, Cynomolgus monkeys
# settings: male, cynomolgus monkey, in vivo, po, 50 mg/kg/day
recorded-metric: Cmax (ng/mL)
Respond numerically; units are ng/mL and should not be typed.

In: Annotate the molecule Clc1ccc2c(NCC34CCCN3CCC4)ccnc2c1 with its measured Cmax.
Out: 67.5

###

# assay-remarks: 7-day oral dose range finding (DRF) and systemic exposure in rats
# Type: in vivo, Sprague Dawley rats
# settings: male, Sprague Dawley, rat, in vivo, po, 120 mg/kg/day, AUC0–48
recorded-metric: AUC(0-t) (µg·h/mL)
Respond numerically; units are µg·h/mL and should not be typed.

In: Annotate the compound Clc1ccc2c(NCC34CCCN3CCC4)ccnc2c1 [MG3] with its measured AUC(0-t).
Out: 27.5

###

# assay-remarks: 7-day oral dose range finding (DRF) and systemic exposure in rats
# Format: in vivo, Sprague Dawley rats
# settings: female, Sprague-Dawley, rat, in vivo, po, 30 mg/kg/day, AUC0–24
recorded-metric: AUC(0-t)
The reply must contain the numeric value and, after it, the unit.

In: Annotate the molecule Clc1ccc2c(NCC34CCCN3CCC4)ccnc2c1 with its measured AUC(0-t).
Out: 2530 ng·h/mL

###

# assay-remarks: Oral DRF and systemic exposure in NHP
# Format: in vivo, Cynomolgus monkeys
# settings: male, cynomolgus monkey, in vivo, po, 50 mg/kg/day
recorded-metric: Tmax (h)
Respond numerically; units are h and should not be typed.

In: Annotate the molecule Clc1ccc2c(NCC34CCCN3CCC4)ccnc2c1 with its measured Tmax.
Out: 2

###

# assay-remarks: Oral DRF and systemic exposure in NHP
# Format: in vivo, Cynomolgus monkeys
# settings: both sexes, cynomolgus monkey, plasma; Mean ± SD of male and female NHP, Day 5, 50 mg/kg/day oral; read-out: t1/2, z (converted)
recorded-metric: half-life (h)
Respond numerically; units are h and should not be typed.

In: Annotate the compound Clc1ccc2c(NCC34CCCN3CCC4)ccnc2c1 with its measured half-life.
Out: 14.9

###

# assay-remarks: Blood to plasma partitioning
# Format: in vitro ADME
# settings: male, whole blood, human blood, up to 30 min
recorded-metric: blood plasma ratio at 300 ng/mL

In: Annotate the compound Clc1ccc2c(NCC34CCCN3CCC4)ccnc2c1 with its measured blood plasma ratio at 300 ng/mL.
Out: ~1

###

# assay-remarks: 7-day oral dose range finding (DRF) and systemic exposure in rats
# Assay type: in vivo, Sprague Dawley rats
# settings: male, Sprague Dawley, rat, in vivo, po, 60 mg/kg/day, Cmax
recorded-metric: Cmax
The reply must contain the numeric value and, after it, the unit.

In: Annotate the compound Clc1ccc2c(NCC34CCCN3CCC4)ccnc2c1 [MG3] with its measured Cmax.
Out: 321 ng/mL

###

# assay-remarks: 7-day oral dose range finding (DRF) and systemic exposure in rats
# Type: in vivo, Sprague Dawley rats
# settings: female, Sprague Dawley, rat, in vivo, po, 120 mg/kg/day, AUC0–48
# Method: Seven days oral DRF in rats and dog, and five days oral DRF in Non-Human Primates (NHP) were performed using Sprague Dawley rats (n = 3/time point) of both sexes, one male and one female dog Beagle (Marshall/Green Hill) and one male and one female monkeys/Cynomolgus (Noveprim Ltd., Mahebourg Mauritius,). […] No Observed Effects Levels (NOEL) were determined. […] Body weight was recorded pre-test, and on Days 1, 4 and 7. Food consumption was recorded from Days 1 to 4 and 4 to 7. […]
recorded-metric: AUC(0-t)

In: Annotate the compound Clc1ccc2c(NCC34CCCN3CCC4)ccnc2c1 with its measured AUC(0-t).
Out: 29800 ng·h/mL

###

# assay-remarks: 7-day oral dose range finding (DRF) and systemic exposure in rats
# Assay type: in vivo, Sprague Dawley rats
# settings: female, Sprague Dawley, rat, in vivo, po, 60 mg/kg/day, AUC0–24
recorded-metric: AUC(0-t) (ng·h/mL)
Respond numerically; units are ng·h/mL and should not be typed.

In: Annotate the compound Clc1ccc2c(NCC34CCCN3CCC4)ccnc2c1 [MG3] with its measured AUC(0-t).
Out: 8630

###

# System: P. falciparum field isolates
# assay-remarks: Chemosensitivity assay on field isolates
# Assay type: cell-based
# settings: Plasmodium falciparum; mean of 10 field isolates, Thai Burmese Border; read-out: P. falciparum IC50 nM, Field Isolates
recorded-metric: IC50 (nM)
Respond numerically; units are nM and should not be typed.

In: Annotate the compound C[C@H]1[C@H](OC(=O)CCC(=O)O)O[C@@H]2O[C@@]3(C)CC[C@H]4[C@H](C)CC[C@@H]1[C@@]24OO3 [ASN, artesunate] with its measured IC50.
Out: 4.2

###

# assay-remarks: Plasma protein binding by ultrafiltration, human, rat and dog
# Assay type: in vitro ADME
# settings: male, SD (rat), Beagle (dog), read-out: free fraction
recorded-metric: fraction unbound

In: Annotate the compound Clc1ccc2c(NCC34CCCN3CCC4)ccnc2c1 with its measured fraction unbound.
Out: 0.16 to 0.33

###

# assay-remarks: 7-day oral dose range finding (DRF) and systemic exposure in rats
# Assay type: in vivo, Sprague Dawley rats
# settings: female, Sprague Dawley, rat, in vivo, po, 120 mg/kg/day, AUC0–24
recorded-metric: AUC(0-t)
The reply must contain the numeric value and, after it, the unit.

In: Annotate the compound Clc1ccc2c(NCC34CCCN3CCC4)ccnc2c1 with its measured AUC(0-t).
Out: 19.4 µg·h/mL

###

# assay-remarks: 7-day oral dose range finding (DRF) and systemic exposure in rats
# Format: in vivo, Sprague Dawley rats
# settings: female, Sprague Dawley, rat, in vivo, po, 30 mg/kg/day, AUC0–24
recorded-metric: AUC(0-t)
The reply must contain the numeric value and, after it, the unit.

In: Annotate the compound Clc1ccc2c(NCC34CCCN3CCC4)ccnc2c1 with its measured AUC(0-t).
Out: 2560 ng·h/mL

###

# assay-remarks: Oral DRF and systemic exposure in NHP
# Type: in vivo, Cynomolgus monkeys
# settings: both sexes, cynomolgus monkey, in vivo, po, 50 mg/kg/day
recorded-metric: AUC(0-t)
The reply must contain the numeric value and, after it, the unit.

In: Annotate the compound Clc1ccc2c(NCC34CCCN3CCC4)ccnc2c1 with its measured AUC(0-t).
Out: 896 ng·h/mL

###

# assay-remarks: Oral DRF and systemic exposure in NHP
# Format: in vivo, Cynomolgus monkeys
# settings: cynomolgus monkey, plasma; Male NHP, Day 5, 50 mg/kg/day oral; read-out: t1/2, z (converted)
recorded-metric: half-life (h)
Respond numerically; units are h and should not be typed.

In: Annotate the molecule Clc1ccc2c(NCC34CCCN3CCC4)ccnc2c1 [MG3] with its measured half-life.
Out: 7.66

###

# assay-remarks: 7-day oral dose range finding (DRF) and systemic exposure in rats
# Assay type: in vivo, Sprague Dawley rats
# settings: male, Sprague-Dawley, rat, in vivo, po, 120 mg/kg/day, Cmax
recorded-metric: Cmax (ng/mL)
Respond numerically; units are ng/mL and should not be typed.

In: Annotate the compound Clc1ccc2c(NCC34CCCN3CCC4)ccnc2c1 [MG3] with its measured Cmax.
Out: 209

###

# assay-remarks: Intrinsic clearance in hepatocytes
# Assay type: in vitro ADME
# settings: monkey hepatocytes
# Method: An automatic liquid handling system (Multiprobe II EX, Packard) was used for sampling. […] Half-life and CLint were determined from the concentration (counts) remaining at the different sampling points using the LC-MS/MS method. The slope was calculated using linear regression analysis of the curve (natural logarithmic area of the compound remaining against the time) and converted into the half-life (t1/2) and CLint expressed as µL/min/million cells and mL/min/kg, respectively.
recorded-metric: CLint scaled at 1 µM (mL/min/kg)
Respond numerically; units are mL/min/kg and should not be typed.

In: Annotate the molecule Clc1ccc2c(NCC34CCCN3CCC4)ccnc2c1 with its measured CLint scaled at 1 µM.
Out: 44
